- Tested on: TNBS-induced colitis
- MEASUREMENT_NOTES: TNBS-induced experimental colitis: clinical activity score rate
- Type: in vivo, Wistar rats
- TEST_CONDITIONS: day 6, oral treatment day 6 to 10; score 0-4
ASSAY_READOUT: Clinical activity score rate, 6 d
Write the number on its own, no unit after it.

Consider the reported Clinical activity score rate, 6 d for these compounds:
>  <TEST_SMILES>
N[C@H](Cc1ccccc1)C(=O)O

>  <TEST_VALUE>
2.22

$$$$
>  <TEST_SMILES>
N[C@@H](Cc1c[nH]cn1)C(=O)O

>  <TEST_VALUE>
2.33

$$$$
>  <TEST_SMILES>
N[C@@H](Cc1ccc(O)cc1)C(=O)O

>  <TEST_VALUE>
2.11

$$$$

Look up Clinical activity score rate, 6 d with TNBS-induced colitis for this compound: O=C(O)c1cc(/N=N/c2ccc(S(=O)(=O)Nc3ccccn3)cc2)ccc1O
2.88

Look up Clinical activity score rate, 6 d with TNBS-induced colitis for this compound: C[C@H]1[C@H](C)CC[C@]2(C)CC[C@]3(C)C(=CC[C@@H]4[C@@]5(C)CC[C@@H](O)[C@](C)(C(=O)O)[C@@H]5CC[C@]43C)[C@H]12
2.77

Look up Clinical activity score rate, 6 d with TNBS-induced colitis for this compound: N[C@@H](Cc1c[nH]c2ccccc12)C(=O)O
2.44
